The reported measurements were obtained from ChEMBL document CHEMBL1142153.

Organism: Macaca fascicularis
ASSAY: Protein binding in monkey serum at 100 ug/ml
TEST_CONTEXT: cynomolgus monkey, read-out: PPB (converted)
READOUT: fraction unbound at 100 ug/ml
// print number alone

Request: In one line, give reported fraction unbound at 100 ug/ml of the entry C[C@@H](O)[C@H]1C(=O)N2C(C(=O)O)=C(S[C@H]3C[C@@H](C(=O)N4CC[C@H](NC(=O)CNC(=N)N)C4)N(C)C3)[C@H](C)[C@H]12 [TOMOPENEM] .
Result: 0.849

* * *

ASSAY: Volume of distribution at steady state in dog at 25 mg/kg, iv
Type: ADME, organism-based, Canis lupus familiaris
Design: dose 25 mg/kg, route intravenous
TEST_CONTEXT: in vivo, read-out: Vss
READOUT: Vd (L/kg)
Give your result in L/kg as a bare value.

Request: In one line, give reported Vd of the entry C[C@@H](O)[C@H]1C(=O)N2C(C(=O)O)=C(S[C@H]3C[C@@H](C(=O)N4CC[C@H](NC(=O)CNC(=N)N)C4)N(C)C3)[C@H](C)[C@H]12 .
Result: 0.228
